# TEST SYSTEM: SMS2 (Homo sapiens, UniProt Q8NHU3)
# Construct: CAO, Yu research team, National Protein Scientific Center (Shanghai); supplied by an outside laboratory, not a commercial vendor
# Sequence (Q8NHU3 whole entry, species assumed): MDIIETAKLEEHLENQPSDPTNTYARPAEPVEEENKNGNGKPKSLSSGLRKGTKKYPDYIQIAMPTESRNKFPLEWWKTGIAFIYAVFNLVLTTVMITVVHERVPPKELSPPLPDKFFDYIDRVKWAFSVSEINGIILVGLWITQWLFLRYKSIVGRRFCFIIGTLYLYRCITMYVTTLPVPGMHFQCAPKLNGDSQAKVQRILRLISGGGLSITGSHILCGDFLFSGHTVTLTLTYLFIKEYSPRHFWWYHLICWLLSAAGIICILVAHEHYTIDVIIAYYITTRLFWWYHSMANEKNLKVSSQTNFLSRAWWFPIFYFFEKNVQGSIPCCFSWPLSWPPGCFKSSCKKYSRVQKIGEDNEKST
# ASSAY OVERVIEW: SMS2 inhibitory activity in vitro, HPLC fluorescence quantitative detection (C6-NBD-ceramide to C6-NBD-SM)
# Format: biochemical
# CONDITION LABEL: 10 µM test compound; SMS2 pure enzyme; 37°C, 30 minutes; average of two measurements; read-out: Inhibition rate on SMS2 at C/µM 10
Label scheme for inhibition at 10 µM: lower than 60% is N, 60% and above is Y.

# SMILES STR, GROUP
measured = [
    ("CC(C)(C)C(=O)Oc1ccc(Cl)c(COc2ccsc2C(=O)Nc2cccnc2)c1", "N"),
    ("O=C(Nc1cccnc1)c1sccc1OCc1ccc(F)cc1", "Y"),
    ("O=C(Nc1cccnc1)c1sccc1OCc1c(Cl)cccc1Cl", "Y"),
    ("CC(C)(O)COc1ccc(F)cc1COc1ccsc1C(=O)Nc1cccnc1", "N"),
    ("O=C(O)CCCCCOc1ccccc1COc1ccsc1C(=O)Nc1cccnc1", "N"),
    ("N#Cc1ccc(COc2ccsc2C(=O)Nc2cccnc2)cc1", "N"),
]

Prompt: Identify whether the reported inhibition at 10 µM of the following molecule is 60% or greater: O=C(Nc1cncnc1)c1sccc1OCc1ccccc1
Response: N

Prompt: Please indicate if the recorded inhibition at 10 µM for O=C(Nc1cccnc1)c1sccc1OCc1ccccc1[N+](=O)[O-] meets or exceeds 60%.
Response: Y

Prompt: Reported inhibition at 10 µM reaches at least 60% for O=C(Nc1cccc(O)n1)c1sccc1OCc1ccccc1 ?
Response: N

Prompt: Textbook exercise: given the entry N#Cc1ccccc1COc1ccsc1C(=O)Nc1cccnc1 , state whether its inhibition at 10 µM is greater than or equal to 60%.
Response: Y

Prompt: Is inhibition at 10 µM at least 60%? Consider CCCOc1ccc(OCCC)c(COc2ccsc2C(=O)Nc2cccnc2)c1
Response: N

====

Listing: inhibition at 1 µM of selected molecules
# TEST SYSTEM: SMS2 (Homo sapiens, UniProt Q8NHU3)
# Construct: CAO, Yu research team, National Protein Scientific Center (Shanghai); supplied by an outside laboratory, not a commercial vendor
# ASSAY OVERVIEW: SMS2 inhibitory activity in vitro, HPLC fluorescence quantitative detection (C6-NBD-ceramide to C6-NBD-SM)
# Assay type: biochemical
# CONDITION LABEL: 1 µM test compound; SMS2 pure enzyme; 37°C, 30 minutes; average of two measurements; read-out: Inhibition rate on SMS2 at C/µM 1
Response body: numeric value in %, unit text excluded.

These recorded examples may help you get a feel for the data.
# MOLECULE, TEST SYSTEM, inhibition at 1 µM [%]
measured = [
    ("O=C(Nc1cccnc1)c1sccc1OCc1ccccc1OC(F)F", "SMS2 (Homo sapiens, UniProt Q8NHU3)", 73),
    ("CCCCCCCOc1cc(Cl)ccc1COc1ccsc1C(=O)Nc1cccnc1", "SMS2 (Homo sapiens, UniProt Q8NHU3)", 90),
    ("O=C(Nc1cccnc1)c1cscc1OCc1ccccc1", "SMS2 (Homo sapiens, UniProt Q8NHU3)", 60),
    ("CCCCCCCOc1ccc(Cl)cc1COc1ccsc1C(=O)Nc1cccnc1", "SMS2 (Homo sapiens, UniProt Q8NHU3)", 98),
    ("O=C(Nc1cccnc1)c1sccc1OCc1ccccc1I", "SMS2 (Homo sapiens, UniProt Q8NHU3)", 82),
]

Prompt: So what does the record say about inhibition at 1 µM for CCc1ccccc1COc1ccccc1C(=O)Nc1cccnc1 [12-1 (LY93), reference compound] ?
Response: 66

Prompt: Value lookup for inhibition at 1 µM; key = O=C(Nc1cccnc1)c1sccc1OCc1ccccc1OCCCCCCCl
Response: 93

Prompt: Tell me the measured inhibition at 1 µM of CCCCCCOc1ccc(Cl)cc1COc1ccsc1C(=O)Nc1cccnc1 , please.
Response: 90

Prompt: Item O=C(Nc1cccnc1)c1sccc1OCc1cccc2cccnc12 has what recorded inhibition at 1 µM?
Response: 68
